PROTOCOL_SUMMARY: yeast display, Sf9 membrane polyspecificity reagent, FACS + sequencing; frameworks hold sequencing errors
OBSERVED_PROPERTY: polyreactivity (PSR sort gate)

// below: answered sequences
INSERT INTO results (entry_sequence, readout_value) VALUES
  ('QVQLVESGGGLVQAGGSLRLSCAASGRIFGPYAMGWYRQAPGKERELVATITWRTGSTYYADSVKGRFTISRDNAKNTVYLQMNSLKPEDTAVYYCAAQSRQAYITYGYWGQGTQVTVSS', 'high polyreactivity'),
  ('QVQLVESGGGLVQAGGRLRLSCAASGFIFPHYAMGWYRQAPGKDRELVAAITWSGSSTYYADSVKGRFTISRDNAKNTVYLQMNSLKPEDTAVYYCYADYRLWPTSRYRYGYWGQGTQVTVTS', 'high polyreactivity'),
  ('QVQLVESGGGLVQAGGSLRLSCAASGSTFDDNAMGWYRQAPGKERELVASITYRGGSTYYADSVKGRFTISRDNAKNTVYLQMNSLKPEDTAVYYCAKGHYFKYDYWGQGTQVTVSS', 'low polyreactivity'),
  ('QVQLVESGGGLVQAGGSLRLSCAASGSIFAYNAMGWYIQSPGTERELVAAISSSGGSTTYADSVKGRFTISRDNAKYTVYLQMNSLKPEDTAVYYCNAAWRRSRYYYWGQGTQVTVSS', 'high polyreactivity');

So, `QVQLEESGGGLVQAGGILRLSCAASGSIFIPNAMGWYRQAPGKERELVAAIRSGGSTYYADSVKGRFTISRDNAKNTVYLQMNSLKPEDTAVYYCAADTYTYYYYLARYYYWGQGTQVTVSS` ? Its polyreactivity (PSR sort gate) was low polyreactivity

Data provenance is the nanobody polyreactivity screen of Harvey et al. (2022).
